- Tested on: 621-101 cells (TSC2-null, derived from a LAM patient)
- test.name: High-throughput screen of known bioactives in 621-101 cells, ATP levels ([…] GLO) as cell viability, with or without rapamycin pretreatment
- Type: cell-based, human
- measurement.conditions: 621-101 cells, DMSO pretreatment, drug alone, 48-72 h
Where a name gives a salt, the structure may show the parent alone.
measurement.kind: Normalized ATP levels drug alone (A)
// print number alone

Worked cases, Normalized ATP levels drug alone (A) given:
Prompt: API: value(readout=Normalized ATP levels drug alone (A), system=621-101 cells (TSC2-null, derived from a LAM patient)) for record CCC1(c2ccc(N)cc2)CCC(=O)NC1=O (stereo not drawn) [Aminoglutethimide]
Response: 0.474

Prompt: API: value(readout=Normalized ATP levels drug alone (A), system=621-101 cells (TSC2-null, derived from a LAM patient)) for record OCCN1CCN(CCCN2c3ccccc3Sc3ccc(C(F)(F)F)cc32)CC1 [Fluphenazine 2HCl]
Response: 0.069

Prompt: API: value(readout=Normalized ATP levels drug alone (A), system=621-101 cells (TSC2-null, derived from a LAM patient)) for record CCC1(c2ccccc2)NC(=O)N(C)C1=O (stereo not drawn)
Response: 0.425

Prompt: API: value(readout=Normalized ATP levels drug alone (A), system=621-101 cells (TSC2-null, derived from a LAM patient)) for record OCCN1CCN(CC/C=C2/c3ccccc3Sc3ccc(C(F)(F)F)cc32)CC1 [Flupenthixol 2HCl]
Response: 0.273

Prompt: API: value(readout=Normalized ATP levels drug alone (A), system=621-101 cells (TSC2-null, derived from a LAM patient)) for record CC(C)NCC(O)COc1ccc(CCOCC2CC2)cc1 (stereo not drawn) [Betaxolol HCl]
Response: 0.487

Next:
Prompt: API: value(readout=Normalized ATP levels drug alone (A), system=621-101 cells (TSC2-null, derived from a LAM patient)) for record OCc1cc(C(O)CNCCCCCCOCCCCc2ccccc2)ccc1O (stereo not drawn)
Response: 0.184

====

- System: 621-101 cells (TSC2-null, derived from a LAM patient)
- test.name: High-throughput screen of known bioactives in 621-101 cells, ATP levels ([…] GLO) as cell viability, with or without rapamycin pretreatment
- Assay type: cell-based, human
- measurement.conditions: ratio of rapa + drug to drug alone
Structures can show the parent of a compound that is named as a salt.
measurement.kind: ATP Fold Change (B):(A)

Worked cases, ATP Fold Change (B):(A) given:
Prompt: If you can, please state the reported ATP Fold Change (B):(A) value of CCC1(c2ccccc2)NC(=O)N(C)C1=O (stereo not drawn) .
Response: 2.8 (Anticonvulsant)

Prompt: If you can, please state the reported ATP Fold Change (B):(A) value of CCC1(c2ccc(N)cc2)CCC(=O)NC1=O (stereo not drawn) [Aminoglutethimide] .
Response: 2.7 (Anticonvulsant)

Prompt: If you can, please state the reported ATP Fold Change (B):(A) value of OCc1cc(C(O)CNCCCCCCOCCCCc2ccccc2)ccc1O (stereo not drawn) .
Response: 2.5 (β blocker)

Prompt: If you can, please state the reported ATP Fold Change (B):(A) value of OCCN1CCN(CC/C=C2/c3ccccc3Sc3ccc(C(F)(F)F)cc32)CC1 [Flupenthixol 2HCl] .
Response: 2.8 (Anti-psychotic)

Prompt: If you can, please state the reported ATP Fold Change (B):(A) value of OCCN1CCN(CCCN2c3ccccc3Sc3ccc(C(F)(F)F)cc32)CC1 [Fluphenazine 2HCl] .
Response: 2.8 (Anti-psychotic)

Now for another entry.
Prompt: If you can, please state the reported ATP Fold Change (B):(A) value of CC(C)NCC(O)COc1ccc(CCOCC2CC2)cc1 (stereo not drawn) [Betaxolol HCl] .
Response: 2.6 (β blocker)
